// provenance: ChEMBL document CHEMBL1131559

Reported MIC values follow for various compounds
System: Staphylococcus aureus
Assay: Compound was evaluated for in vitro antibacterial activity against gram positive organism Staphylococcus aureus strain ATCC 6538P
Assay type: functional
# value in µg/mL; strip the unit string

Illustrative cases are given below, each with its answer.
{"compound": "CCn1cc(C(=O)O)c(=O)c2cc(F)c(N3CCNCC3)cc21 [NORFLOXACIN]", "measurement.kind": "MIC", "result.units": "µg/mL", "result": 1}
{"compound": "CN[C@@H]1CN(c2c(F)c(N)c3c(=O)c(C(=O)O)cn(C4CC4)c3c2F)C[C@H]1NC.Cl", "measurement.kind": "MIC", "result.units": "µg/mL", "result": 0.5}
{"compound": "CCn1cc(C(=O)O)c(=O)c2cc(F)c(N3C[C@@H](N)[C@H](N)C3)c(F)c21.Cl", "measurement.kind": "MIC", "result.units": "µg/mL", "result": 2}
{"compound": "CN[C@@H]1CN(c2cc3c(cc2F)c(=O)c(C(=O)O)cn3-c2ccc(F)cc2)C[C@H]1NC.Cl", "measurement.kind": "MIC", "result.units": "µg/mL", "result": 0.5}

Pending compound:
So what's the measured MIC for this one? CN[C@@H]1CN(c2cc3c(cc2F)c(=O)c(C(=O)O)cn3C2CC2)C[C@H]1NC.Cl 0.5

====

Tested on: Staphylococcus epidermidis
Experiment: Compound was evaluated for in vitro antibacterial activity against gram positive organism Staphylococcus epidermidis strain ATCC 12228
Format: functional
measurement.kind: MIC

{"structure.notation": "O=C(O)c1cn(C2CC2)c2cc(N3CCNCC3)c(F)cc2c1=O", "MIC": "1 µg/mL"}
{"structure.notation": "CN[C@@H]1CN(c2cc3c(cc2F)c(=O)c(C(=O)O)cn3-c2ccccc2F)C[C@H]1NC.O=C(O)C(F)(F)F", "MIC": "2 µg/mL"}
{"structure.notation": "CCn1cc(C(=O)O)c(=O)c2cc(F)c(N3CCNCC3)cc21", "MIC": "1 µg/mL"}
{"structure.notation": "Cl.N[C@@H]1CN(c2cc3c(cc2F)c(=O)c(C(=O)O)cn3-c2ccc(F)cc2)C[C@H]1N", "MIC": "1 µg/mL"}
{"structure.notation": "CN[C@@H]1CN(c2cc3c(cc2F)c(=O)c(C(=O)O)cn3-c2ccc(F)cc2)C[C@H]1NC.Cl", "MIC": "1 µg/mL"}
{"structure.notation": "CN[C@@H]1CN(c2cc3c(cc2F)c(=O)c(C(=O)O)cn3C2CC2)C[C@H]1NC.Cl", "MIC": "0.5 µg/mL"}
{"structure.notation": "CCn1cc(C(=O)O)c(=O)c2cc(F)c(N3C[C@@H](NC)[C@H](NC)C3)c(F)c21.Cl", "MIC": "2 µg/mL"}
{"structure.notation": "CCn1cc(C(=O)O)c(=O)c2cc(F)c(N3C[C@@H](N)[C@H](N)C3)c(F)c21.Cl", "MIC": "2 µg/mL"}
{"structure.notation": "CN[C@@H]1CN(c2c(F)c(N)c3c(=O)c(C(=O)O)cn(C4CC4)c3c2F)C[C@H]1NC.Cl", "MIC": "1 µg/mL"}

Pending molecule:
So what's the measured MIC for this one? N[C@@H]1CN(c2cc3c(cc2F)c(=O)c(C(=O)O)cn3C2CC2)C[C@H]1N.O=C(O)C(F)(F)F 2 µg/mL

====

Test system: Escherichia coli
Test: Compound was evaluated for in vitro antibacterial activity against gram negative organism Escherichia coli strain ATCC 35218
Assay type: functional
Reported MIC values follow for various compounds
# value in µg/mL; strip the unit string

Illustrative cases are given below, each with its answer.
{"structure.notation": "CN[C@@H]1CN(c2cc3c(cc2F)c(=O)c(C(=O)O)cn3C2CC2)C[C@H]1NC.Cl", "result.units": "µg/mL", "MIC": 0.25}
{"structure.notation": "CN[C@@H]1CN(c2c(F)c(N)c3c(=O)c(C(=O)O)cn(C4CC4)c3c2F)C[C@H]1NC.Cl", "result.units": "µg/mL", "MIC": 0.5}
{"structure.notation": "N[C@@H]1CN(c2cc3c(cc2F)c(=O)c(C(=O)O)cn3C2CC2)C[C@H]1N.O=C(O)C(F)(F)F", "result.units": "µg/mL", "MIC": 1}

Pending compound:
So what's the measured MIC for this one? CN[C@@H]1CN(c2cc3c(cc2F)c(=O)c(C(=O)O)cn3-c2ccccc2F)C[C@H]1NC.O=C(O)C(F)(F)F 0.5
